Test system: RIPK4
condition: Compound Concentration (nM):1000;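 also: KINOMEscan scanMAX binding as percent activity remaining versus control; lower means stronger binding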
endpoint: Percent Control (%)
Number in %, nothing else.

Past entries and their recorded results:
COc1ccccc1-c1cc(/C=C2\C(=O)Nc3ncc(Br)cc32)cc(Br)c1O [GW442130X]    100
COC(=O)Nc1nc2ccc(Oc3ccc(NC(=O)Nc4cc(C(F)(F)F)ccc4F)cc3)cc2s1.Cl [GW693917A]    76
C/C(Nc1ccc(S(N)(=O)=O)cc1)=C1/C(=O)Nc2ccccc21 [GW335962X]    86
Cl.O=C(Nc1ccc(Oc2ccc3[nH]c(NC(=O)c4ccco4)nc3c2)cc1)Nc1cc(C(F)(F)F)ccc1F [GW683134A]    100

Next compound, Percent Control to be filled in.
Measured Percent Control, COc1cccc(-c2c[nH]c3c(N/N=C/c4ccncc4)ncnc23)c1 [GW814408X] : 13

---

Attribute: Percent Control
Test system: PIKFYVE
condition: Compound Concentration (nM):1000
Number in %, nothing else.

C/C(Nc1ccc(S(N)(=O)=O)cc1)=C1/C(=O)Nc2ccccc21 [GW335962X]    100
COc1ccc2cc(-c3c(-c4ccncc4)nc(-c4ccc(S(C)(=O)=O)cc4C)n3C)ccc2c1 [SB-633825]    100
Nc1ncnc2occ(-c3ccc(NC(=O)Nc4cc(C(F)(F)F)ccc4F)cc3)c12 [GW770249X]    95

Measured Percent Control, NS(=O)(=O)c1ccc(N/N=C2\C(=O)Nc3ccc(-c4cnco4)cc32)cc1 [GW276655] : 100

Measured Percent Control, COc1ccc(COc2ccc(Cc3cnc(N)nc3N)cc2OC)cc1 [GW632580X] : 100

Measured Percent Control, CCS(=O)(=O)c1ccc(OC)c(Nc2ncc(-c3cccc(F)c3)o2)c1 [GW621970X] : 100

Measured Percent Control, Cl.O=C(Nc1ccc(Oc2ccc3[nH]c(NC(=O)c4ccccc4)nc3c2)cc1)Nc1cc(C(F)(F)F)ccc1F [GW709042A] : 100

Measured Percent Control, Cl.O=S1CCN(Cc2ccc(-c3ccc4ncnc(Nc5ccc(OCc6ccccc6)c(F)c5)c4c3)o2)CC1 [GW576924A] : 86

Measured Percent Control, C[C@@H](Oc1cc(-n2cnc3ccc(OC4CCN(C)CC4)cc32)sc1C(N)=O)c1ccccc1Cl [GSK579289A] : 15

Measured Percent Control, CCn1c(-c2nonc2N)nc2c(C#CC(C)(C)O)nc(OCCNC)cc21.Cl [GSK949675] : 20

Measured Percent Control, CCS(=O)(=O)c1ccc(OC)c(Nc2ncc(-c3cccc(OC)c3)o2)c1 [GW580509X] : 91

Measured Percent Control, CCc1ccc(Oc2nccc(-c3c(-c4ccc(F)cc4)ncn3C3CCNCC3)n2)cc1 [SB-242719] : 100

---

Attribute: Percent Control
Test system: SRPK3
condition: Compound Concentration (nM):1000
Number in %, nothing else.

Past entries and their recorded results:
CCn1c(-c2nonc2N)nc2c(C#CC(C)(C)O)nc(OCCNC)cc21.Cl    100
Cl.O=C(Nc1ccc(Oc2ccc3[nH]c(NC(=O)c4ccco4)nc3c2)cc1)Nc1cc(C(F)(F)F)ccc1F [GW683134A]    84
NS(=O)(=O)c1ccc(N/N=C2\C(=O)Nc3ccc(C(=O)NCCc4c[nH]cn4)cc32)cc1 [GW300660X]    76
COc1cc(C)c(N(C)C(=O)CN(C)C)cc1Nc1nc(Nc2cccc(F)c2C(N)=O)c2cc[nH]c2n1    100
COc1cc2ncnc(Nc3ccc4c(cnn4Cc4ccccc4)c3)c2cc1OC.Cl [GW282449A]    97

Measured Percent Control, COc1ccccc1-c1cc(/C=C2\C(=O)Nc3ncc(Br)cc32)cc(Br)c1O [GW442130X] : 100

Measured Percent Control, O=C(Nc1n[nH]c2nc(-c3ccc(O)cc3)c(Br)cc12)C1CC1 : 100

Measured Percent Control, CCc1ccc(Oc2nccc(-c3c(-c4ccc(F)cc4)ncn3C3CCNCC3)n2)cc1 : 88

Measured Percent Control, Nc1ncnc2occ(-c3ccc(NC(=O)Nc4cc(C(F)(F)F)ccc4F)cc3)c12 [GW770249X] : 63

Measured Percent Control, COc1ccc2cc(-c3c(-c4ccncc4)nc(-c4ccc(S(C)(=O)=O)cc4C)n3C)ccc2c1 : 83
